tested on: Escherichia coli TOP10; experiment: shrunken log2 fold change of peptide-encoding DNA abundance (4.5 h post-induction vs induction); higher = less antimicrobial activity (less host growth inhibition); settings: time post-induction: 4.5 h; library: site-saturation at positions 5, 18, 19, 20;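 further: peptides expressed intracellularly from a pBAD plasmid library in pooled LB shake-flask culture, induced with 0.3% L-arabinose, DNA abundance read by NGS, three biological replicates, DESeq2 with apeglm shrinkage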
Listed sequences paired with reported shrunken log2 fold change

{"residue codes": "RRIRSRPPRLPRPRPRPICQPRP", "shrunken log2 fold change": -0.00676}
{"residue codes": "RRIRTRPPRLPRPRPRPSAVPRP", "shrunken log2 fold change": -0.0697}
{"residue codes": "RRIRFRPPRLPRPRPRPSKVPRP", "shrunken log2 fold change": -0.293}
{"residue codes": "RRIRRRPPRLPRPRPRPRFTPRP", "shrunken log2 fold change": 0.264}
{"residue codes": "RRIRKRPPRLPRPRPRPEHRPRP", "shrunken log2 fold change": -0.0428}
{"residue codes": "RRIRMRPPRLPRPRPRPIRGPRP", "shrunken log2 fold change": -0.00871}
{"residue codes": "RRIRQRPPRLPRPRPRPWRTPRP", "shrunken log2 fold change": -0.152}
{"residue codes": "RRIRYRPPRLPRPRPRPKEVPRP", "shrunken log2 fold change": 0.0274}
{"residue codes": "RRIRGRPPRLPRPRPRPFENPRP", "shrunken log2 fold change": 0.0511}
{"residue codes": "RRIRVRPPRLPRPRPRPEQFPRP", "shrunken log2 fold change": 0.0357}
{"residue codes": "RRIRARPPRLPRPRPRPQIQPRP", "shrunken log2 fold change": 0.503}
{"residue codes": "RRIRNRPPRLPRPRPRPAKEPRP", "shrunken log2 fold change": 0.0446}
{"residue codes": "RRIRTRPPRLPRPRPRPILPPRP", "shrunken log2 fold change": -0.066}
{"residue codes": "RRIRVRPPRLPRPRPRPHHAPRP", "shrunken log2 fold change": -0.0431}
{"residue codes": "RRIRVRPPRLPRPRPRPNTDPRP", "shrunken log2 fold change": -0.626}
{"residue codes": "RRIRIRPPRLPRPRPRPMALPRP", "shrunken log2 fold change": -0.581}
{"residue codes": "RRIRKRPPRLPRPRPRPVWNPRP", "shrunken log2 fold change": -0.106}
{"residue codes": "RRIRLRPPRLPRPRPRPCFQPRP", "shrunken log2 fold change": -0.512}
{"residue codes": "RRIRPRPPRLPRPRPRPCGDPRP", "shrunken log2 fold change": 0.078}
{"residue codes": "RRIRMRPPRLPRPRPRPHYPPRP", "shrunken log2 fold change": -0.303}
{"residue codes": "RRIRYRPPRLPRPRPRPDIVPRP", "shrunken log2 fold change": -0.295}
